Data provenance is paper PMC4336329.

Molecular target: human ether-à-go-go-related gene (hERG) potassium channel (human)
Experiment: primary screen, population patch clamp on CHO cells stably expressing hERG; higher = less effect of the substance
Out of some 310,000 compounds screened, about 2,200 (0.71%) showed an effect of 50% or more. The effect is printed as a negative number. The full list was thinned out, with strong results kept by preference.
property_label: hERG current change (%, negative = inhibition) at 1uM (%)
Give the quantity in %, number only.

{"columns": ["given_smiles", "recorded_number"],
 "data": [
  ["COCCn1c(SCC(=O)c2c[nH]c3ccccc23)nnc1-c1ccncc1", 7.84],
  ["CCN(CCCNC(=O)CCn1c(=S)[nH]c2cc3c(cc2c1=O)OCO3)c1cccc(C)c1", 11.5],
  ["CCN(CC)CCNCc1cc(Br)ccc1OCC(=O)NCc1ccccc1.Cl", -54.6]
]}

Value lookup for hERG current change (%, negative = inhibition) at 1uM; key = Cc1ccc(Oc2nc(C(F)(F)F)nc3ccccc23)cc1
6.66

Value lookup for hERG current change (%, negative = inhibition) at 1uM; key = CCN(CC)CCNCc1ccc(Br)cc1OCC(=O)NCc1ccccc1.Cl
-7.7

###

Molecular target: human ether-à-go-go-related gene (hERG) potassium channel (human, UniProt Q12809)
Sequence (Q12809 whole entry, looked up): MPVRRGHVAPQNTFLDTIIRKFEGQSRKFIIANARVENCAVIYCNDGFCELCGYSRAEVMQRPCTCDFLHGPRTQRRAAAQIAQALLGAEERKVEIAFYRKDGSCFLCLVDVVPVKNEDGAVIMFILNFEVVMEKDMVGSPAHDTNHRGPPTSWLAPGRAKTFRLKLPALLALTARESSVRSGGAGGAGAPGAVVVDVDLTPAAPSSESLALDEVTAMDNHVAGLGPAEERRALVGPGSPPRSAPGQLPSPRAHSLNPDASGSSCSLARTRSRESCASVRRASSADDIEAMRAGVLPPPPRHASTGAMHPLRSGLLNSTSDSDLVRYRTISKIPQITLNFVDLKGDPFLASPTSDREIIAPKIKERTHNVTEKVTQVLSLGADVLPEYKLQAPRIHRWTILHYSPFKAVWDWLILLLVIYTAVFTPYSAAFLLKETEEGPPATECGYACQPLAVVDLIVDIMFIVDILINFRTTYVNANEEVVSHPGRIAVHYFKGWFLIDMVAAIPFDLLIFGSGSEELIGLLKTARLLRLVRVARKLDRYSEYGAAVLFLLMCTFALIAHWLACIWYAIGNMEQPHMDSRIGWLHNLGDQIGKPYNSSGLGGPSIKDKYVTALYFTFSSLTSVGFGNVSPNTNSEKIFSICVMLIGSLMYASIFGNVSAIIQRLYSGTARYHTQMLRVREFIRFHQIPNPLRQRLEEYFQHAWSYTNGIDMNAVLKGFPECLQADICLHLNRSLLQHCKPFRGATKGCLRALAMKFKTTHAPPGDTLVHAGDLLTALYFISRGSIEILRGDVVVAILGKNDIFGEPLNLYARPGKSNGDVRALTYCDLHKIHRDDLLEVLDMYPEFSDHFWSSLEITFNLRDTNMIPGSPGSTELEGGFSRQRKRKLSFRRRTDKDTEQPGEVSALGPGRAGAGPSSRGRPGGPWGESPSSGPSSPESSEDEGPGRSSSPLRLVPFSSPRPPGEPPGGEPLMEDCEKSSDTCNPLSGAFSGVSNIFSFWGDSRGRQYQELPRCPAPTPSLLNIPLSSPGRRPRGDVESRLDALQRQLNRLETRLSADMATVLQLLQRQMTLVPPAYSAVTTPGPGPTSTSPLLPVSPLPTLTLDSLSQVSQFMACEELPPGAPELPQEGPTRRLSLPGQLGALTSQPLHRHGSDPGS
Experiment: primary screen, population patch clamp on CHO cells stably expressing hERG; higher = less effect of the substance
From the text: Briefly, Chinese hamster ovary (CHO) cells stably expressing the hERG channel were dislodged from tissue culture flasks and dispensed into PPC plates. […] Small molecule effects on hERG current density were quantified by […].
Among all 310,000 compounds or so, about 2,200 (0.71%) showed an effect of 50% or more. The effect is printed as a negative number. This is one part of a sample in which strong results are shown more often than they occur.
Measured hERG current change (%, negative = inhibition) at 1uM by item
Give the quantity in %, number only.

{"columns": ["compound", "value_unit", "recorded_number"],
 "data": [
  ["CCOC(=O)C1C(=O)CC(C)(O)C(C(=O)OCC)C1c1ccc(OC)cc1 (stereo not shown)", "%", -0.912]
]}

Value lookup for hERG current change (%, negative = inhibition) at 1uM; key = O=c1c([N+](=O)[O-])c(N2CCCC2)c2ccccc2n1-c1ccccc1
4.99

Value lookup for hERG current change (%, negative = inhibition) at 1uM; key = CCN(CC)C(=O)CN1C(=O)COCC1=O
5.42

Value lookup for hERG current change (%, negative = inhibition) at 1uM; key = COc1ccc(C2C=C(Nc3ccccc3)C(=O)N2c2ccccc2)cc1OC (stereo not shown)
20.1

Value lookup for hERG current change (%, negative = inhibition) at 1uM; key = O=C(C[n+]1cccc(CNC(=O)c2ccc(OC(F)F)cc2)c1)c1ccccc1.[Cl-]
2.3

Value lookup for hERG current change (%, negative = inhibition) at 1uM; key = C=C(C)Cn1c(SCC#N)nc2ccccc2c1=O
3.85

Value lookup for hERG current change (%, negative = inhibition) at 1uM; key = CC1CN(c2ccc([N+](=O)[O-])c(N3CCCCC3)c2)CCN1 (stereo not shown)
8.07

Value lookup for hERG current change (%, negative = inhibition) at 1uM; key = CCCc1cc(=O)n2[nH]c(NCc3c(F)cccc3Cl)nc2n1
12.7

Value lookup for hERG current change (%, negative = inhibition) at 1uM; key = O=C(C[n+]1cn(C(F)F)c2ccccc21)c1ccc(Br)cc1.[Br-]
3.52

Value lookup for hERG current change (%, negative = inhibition) at 1uM; key = O=C(C[n+]1ccc(C(=O)NCc2ccccc2)cc1)c1ccc(OC(F)F)cc1.[Br-]
-81.2

###

Target: human ether-à-go-go-related gene (hERG) potassium channel (human, UniProt Q12809)
Test: primary screen, population patch clamp on CHO cells stably expressing hERG; higher = less effect of the substance
Among all 310,000 compounds or so, about 2,200 (0.71%) showed an effect of 50% or more. Effects have a minus sign here. For the sample, strong results were picked, then their nearest neighbours and some compounds at random.
Binary call on hERG current change (%, negative = inhibition) at 1uM: T from -20% upward, F beneath that.

Examples with answers:
{"columns": ["molecule", "study_system", "group"],
 "data": [
  ["N#Cc1cc([N+](=O)[O-])ccc1N1CCCC1", "human ether-à-go-go-related gene (hERG) potassium channel (human, UniProt Q12809)", "T"],
  ["CCC(=O)N1c2ccc(S(=O)(=O)N3CCN(C)CC3)cc2CC1C (stereo not shown)", "human ether-à-go-go-related gene (hERG) potassium channel (human, UniProt Q12809)", "T"],
  ["CCN1CCN(C(=O)C2CCN(Cc3nc(-c4cccc(Cl)c4)oc3C)CC2)CC1", "human ether-à-go-go-related gene (hERG) potassium channel (human, UniProt Q12809)", "F"],
  ["CCCN1CCN(c2ccc([N+](=O)[O-])cc2C#N)CC1", "human ether-à-go-go-related gene (hERG) potassium channel (human, UniProt Q12809)", "F"],
  ["Cc1oc(-c2ccc(Cl)cc2)nc1CN1CCC(C(=O)N2CCc3ccccc3C2)CC1", "human ether-à-go-go-related gene (hERG) potassium channel (human, UniProt Q12809)", "F"],
  ["Cc1oc(-c2ccc(Cl)cc2)nc1CN1CCC(C(=O)NCc2ccco2)CC1", "human ether-à-go-go-related gene (hERG) potassium channel (human, UniProt Q12809)", "F"]
]}

Does the reported hERG current change (%, negative = inhibition) at 1uM for CC1CN(C(=S)Nc2cccc(Cl)c2Cl)CC(C)O1 (stereo not shown) fall at or above the -20% mark?
T

###

Target: human ether-à-go-go-related gene (hERG) potassium channel (human, UniProt Q12809)
Experiment: primary screen, population patch clamp on CHO cells stably expressing hERG; higher = less effect of the substance
Screen size: about 310,000 compounds; about 2,200 (0.71%) showed an effect of 50% or more. The effect is printed as a negative number. What follows is part of a selection rich in strong results, with near analogues and random picks from the rest.
Measured hERG current change (%, negative = inhibition) at 1uM by item
Give the quantity in %, number only.

Please review the entries below; each comes with its answer.
{"columns": ["compound", "recorded_number"],
 "data": [
  ["C=CCOc1ccccc1/C=N/NC(=O)Cc1ccccc1", 14.3],
  ["Cc1ccc(N(CC(O)CN2CCOCC2)S(=O)(=O)c2ccc([N+](=O)[O-])cc2)cc1 (centres unmarked)", -49.1],
  ["Cc1ccccc1S(=O)(=O)N(CC(O)CN1CCCCC1)c1ccccc1 (centres unmarked)", -71.2]
]}

Value lookup for hERG current change (%, negative = inhibition) at 1uM; key = Cc1ccc2[nH]cc(C(=O)CCl)c2c1
15.2

Value lookup for hERG current change (%, negative = inhibition) at 1uM; key = Cl.O=S(=O)(c1ccc2ccccc2c1)N(CC(O)CN1CCOCC1)c1ccccc1 (centres unmarked)
-21.2

###

Biological target: human ether-à-go-go-related gene (hERG) potassium channel (human, UniProt Q12809)
Test: primary screen, population patch clamp on CHO cells stably expressing hERG; higher = less effect of the substance
Out of some 310,000 compounds screened, about 2,200 (0.71%) showed an effect of 50% or more. The effect is printed as a negative number. This excerpt belongs to a sample that is enriched for strong results.
Measured hERG current change (%, negative = inhibition) at 1uM by item
Give the quantity in %, number only.

Value lookup for hERG current change (%, negative = inhibition) at 1uM; key = COc1cc(Cl)c(C)cc1NC(=O)CSc1sc2c(O)cc(=O)[nH]c2c1C#N
18.7

Value lookup for hERG current change (%, negative = inhibition) at 1uM; key = CCOc1cc(S(=O)(=O)N2CCN(CC)CC2)ccc1Cl
6.75

Value lookup for hERG current change (%, negative = inhibition) at 1uM; key = CN(C)CCN(C(=O)c1ccc2c(c1)OCCO2)c1nc2ccc(Cl)cc2s1.Cl
10.8

Value lookup for hERG current change (%, negative = inhibition) at 1uM; key = COc1ccccc1CCc1nnc(CCC(=O)N(C)Cc2cccc3cnccc23)o1
-53.3

Value lookup for hERG current change (%, negative = inhibition) at 1uM; key = Cc1ccc2nc(N(CCN(C)C)C(=O)C3=COCCO3)sc2c1.Cl
-5.32

Value lookup for hERG current change (%, negative = inhibition) at 1uM; key = COc1ccc(OC)c(C(=O)CSc2nnc(Cc3cccs3)n2CCc2ccccc2)c1
-6.84

Value lookup for hERG current change (%, negative = inhibition) at 1uM; key = CN(C)CCN(C(=O)C1=COCCO1)c1nc2ccc(Cl)cc2s1.Cl
-62.4

Value lookup for hERG current change (%, negative = inhibition) at 1uM; key = CN(C)CCCN(C(=O)C1COc2ccccc2O1)c1nc2ccc(F)cc2s1.Cl (stereo not drawn)
-64.9

Value lookup for hERG current change (%, negative = inhibition) at 1uM; key = COc1cccc(/C=C/C(=O)OCC(=O)Nc2cc(C(F)(F)F)ccc2Cl)c1
8.68
